Provide the reported inhibition of SARS-CoV-2 cytopathic effect of each item.
System: Vero E6 infected with SARS-CoV-2
Protocol description: inhibition of SARS-CoV-2 cytopathic effect; higher = more antiviral protection, active = above 15
Run parameters: 100 nM; 48 h
Numbers only, in %.

# example entries with known answers
{"columns": ["Molecule", "System tested", "Observed"],
 "data": [
  ["Clc1ccc(C(Cn2ccnc2)OCc2c(Cl)cccc2Cl)c(Cl)c1 (stereo not drawn) [isoconazole]", "Vero E6 infected with SARS-CoV-2", 1.75],
  ["C[C@]12CCC(=O)C[C@@H]1CC[C@@H]1[C@@H]2CC[C@]2(C)[C@@H](O)CC[C@@H]12 [Dihydrotestosterone]", "Vero E6 infected with SARS-CoV-2", -1.92],
  ["CCOC(=O)C1=C(C)NC(C)=C(C(=O)OC)C1c1cccc(Cl)c1Cl (stereo not drawn) [felodipine]", "Vero E6 infected with SARS-CoV-2", 5.39],
  ["Cc1ccc(-c2nn(C(C)(C)CNC(=O)c3ncccc3C)c3ncnc(N)c23)cc1 [WEHI-345-analog]", "Vero E6 infected with SARS-CoV-2", -0.26],
  ["C[N+](C)(C)[C@@H](Cc1c[nH]c(=S)[nH]1)C(=O)O [L-ergothioneine]", "Vero E6 infected with SARS-CoV-2", 2.33]
]}

Working through the 6 molecules below one at a time, give inhibition of SARS-CoV-2 cytopathic effect for each.
1. CS(=O)(=O)OCCCCOS(C)(=O)=O [busulfan]
2. O=C(NCCCCCCNC(=O)ON=C1CCCCC1)ON=C1CCCCC1
3. CC(C)[C@@H]1C(=O)N(S(C)(=O)=O)[C@@H]2CCN(C(=O)/C=C/CN3CCCCC3)[C@H]21
4. Cc1ccc(NC(=O)c2ccc(CN3CCN(C)CC3)cc2)cc1Nc1nc(-c2cccnc2)cs1 [masitinib]
5. COc1ccc2[nH]c([S+]([O-])Cc3ncc(C)c(OC)c3C)nc2c1 (stereo not drawn) [omeprazole]
6. CCCCCCCCc1ccc(-c2ccc(C(=O)O)cc2)cc1

Response:
-3.55
1.93
1.05
1.05
1.08
1.52
